Give measured concentration at 3 h for each item. Keep answers brief.
# testDetails: Mouse blood levels
# runConditions: mouse, blood, po, 100 mg/kg
Answers are plain numbers, in ng/mL.

>>> df
                                   molecule  displayunit  result
0  C/C=C\C1=C(C(=O)O)N2C(=O)C(NC(=O)[C@H](N)c3cccc(O)c3)[C@H]2SC1 (some centres unmarked) [BMY-28272]        ng/mL   10000

Now look at this one.
## Input What value of measured concentration at 3 h is listed for C/C=C\C1=C(C(=O)O)N2C(=O)C(NC(=O)[C@H](N)c3ccc(O)cc3)[C@H]2SC1 (some centres unmarked) [BMY-28100] ?
## Output 4500

* * *

# testDetails: in vivo
# runConditions: mouse, in vivo, po, 20 mg/kg, AUC
endpointName: AUC (ng·h/mL)
Numbers only, in ng·h/mL.

## Input What value of measured AUC is listed for C/C=C\C1=C(C(=O)O)N2C(=O)C(NC(=O)[C@H](N)c3ccc(O)cc3)[C@H]2SC1 (stereo partly shown) ?
## Output 20000

* * *

# testDetails: in vivo
# runConditions: mouse, in vivo, po, 20 mg/kg, T 1/2
# Text: Table 3 contains comparative blood level data for mice treated orally and intramuscularly with the hydroxyphenylglycyl derivatives.
endpointName: half-life (h)
Answers are plain numbers, in h.

## Input What value of measured half-life is listed for C/C=C\C1=C(C(=O)O)N2C(=O)C(NC(=O)[C@H](N)c3ccc(O)cc3)[C@H]2SC1 (stereo partly shown) [BMY-28100] ?
## Output 1.4

* * *

Give measured concentration at 7 h for each item. Keep answers brief.
# testDetails: Mouse blood levels
# runConditions: mouse, blood, po, 100 mg/kg
# From the text: Table 3 contains comparative blood level data for mice treated orally and intramuscularly with the hydroxyphenylglycyl derivatives.
One number for each entry, in ng/mL.

Parameters: items (list). Returns: concentration at 7 h for each item.
1. C/C=C\C1=C(C(=O)O)N2C(=O)C(NC(=O)[C@H](N)c3ccc(O)cc3)[C@H]2SC1 (some centres unmarked)
2. C/C=C\C1=C(C(=O)O)N2C(=O)C(NC(=O)[C@H](N)c3cccc(O)c3)[C@H]2SC1 (some centres unmarked)

## Output
1700
2500

* * *

# testDetails: in vivo
# runConditions: mouse, in vivo, po, 100 mg/kg, T 1/2
endpointName: half-life (h)
Give bare numbers, in h.

## Input What value of measured half-life is listed for C/C=C\C1=C(C(=O)O)N2C(=O)C(NC(=O)[C@H](N)c3ccc(O)cc3)[C@H]2SC1 (stereo partly shown) [BMY-28100] ?
## Output 2.1

* * *

Give measured concentration at 6 h for each item. Keep answers brief.
# testDetails: Mouse blood levels
# runConditions: mouse, blood, po, 100 mg/kg
One number for each entry, in ng/mL.

Parameters: items (list). Returns: concentration at 6 h for each item.
1. C/C=C\C1=C(C(=O)O)N2C(=O)C(NC(=O)[C@H](N)c3ccc(O)cc3)[C@H]2SC1 (some centres unmarked) [BMY-28100]
2. C/C=C\C1=C(C(=O)O)N2C(=O)C(NC(=O)[C@H](N)c3cccc(O)c3)[C@H]2SC1 (some centres unmarked) [BMY-28272]

## Output
1: 2500; 2: 2800

* * *

# testDetails: Mouse blood levels
# runConditions: mouse, blood, im, 20 mg/kg
# Excerpt: Table 3 contains comparative blood level data for mice treated orally and intramuscularly with the hydroxyphenylglycyl derivatives.
endpointName: concentration at 2 h (ng/mL)
Answers are plain numbers, in ng/mL.

>>> df
                                   compound          endpointname  result
0  C/C=C\C1=C(C(=O)O)N2C(=O)C(NC(=O)[C@H](N)c3cccc(O)c3)[C@H]2SC1 (some centres unmarked) [BMY-28272]  concentration at 2 h    2600

Now look at this one.
## Input What value of measured concentration at 2 h is listed for C/C=C\C1=C(C(=O)O)N2C(=O)C(NC(=O)[C@H](N)c3ccc(O)cc3)[C@H]2SC1 (some centres unmarked) [BMY-28100] ?
## Output 1600

* * *

# testDetails: Mouse blood levels
# runConditions: mouse, blood, po, 20 mg/kg
# From the text: Table 3 contains comparative blood level data for mice treated orally and intramuscularly with the hydroxyphenylglycyl derivatives.
endpointName: concentration at 4 h (ng/mL)
Numbers only, in ng/mL.

>>> print(df.to_string())
                                   compound  displayunit  result
0  C/C=C\C1=C(C(=O)O)N2C(=O)C(NC(=O)[C@H](N)c3cccc(O)c3)[C@H]2SC1 (some centres unmarked) [BMY-28272]        ng/mL     220

Now look at this one.
## Input What value of measured concentration at 4 h is listed for C/C=C\C1=C(C(=O)O)N2C(=O)C(NC(=O)[C@H](N)c3ccc(O)cc3)[C@H]2SC1 (some centres unmarked) [BMY-28100] ?
## Output 970

* * *

# testDetails: Mouse blood levels
# runConditions: mouse, blood, po, 20 mg/kg, T 1/2, 20 mg/kg p.o.; another experiment (footnote)
endpointName: half-life (h)
Give bare numbers, in h.

## Input What value of measured half-life is listed for C/C=C\C1=C(C(=O)O)N2C(=O)C(NC(=O)[C@H](N)c3cccc(O)c3)[C@H]2SC1 (stereo partly shown) ?
## Output 1

* * *

# testDetails: Mouse urinary recovery
# Assay type: in vivo, mice
# runConditions: mouse, urine, po, 20 mg/kg, p.o., total, read-out: Mouse urinary recovery Total
endpointName: dose excreted at 24 h (%)
Numbers only, in %.

Check out these entries, answers already filled in.
>>> df
                                   compound  result
0  C/C=C\C1=C(C(=O)O)N2C(=O)C(NC(=O)[C@H](N)c3cccc(O)c3)[C@H]2SC1 (stereo partly drawn) [BMY-28272]      51
1  N[C@@H](C(=O)N[C@@H]1C(=O)N2C(C(=O)O)=C(Cl)CS[C@H]12)c1ccccc1 [cefaclor]      69

Now look at this one.
## Input What value of measured dose excreted at 24 h is listed for C/C=C\C1=C(C(=O)O)N2C(=O)C(NC(=O)[C@H](N)c3ccc(O)cc3)[C@H]2SC1 (stereo partly drawn) [BMY-28100] ?
## Output 69

* * *

# testDetails: in vivo
# runConditions: mouse, in vivo, po, 100 mg/kg, AUC
endpointName: AUC (ng·h/mL)
Give bare numbers, in ng·h/mL.

## Input What value of measured AUC is listed for C/C=C\C1=C(C(=O)O)N2C(=O)C(NC(=O)[C@H](N)c3ccc(O)cc3)[C@H]2SC1 (stereo partly shown) ?
## Output 51000

* * *

# testDetails: Mouse blood levels
# runConditions: mouse, blood, po, 20 mg/kg
endpointName: concentration at 6 h
Field note: include the unit after the figure.

>>> df
                                   compound          endpointname     result
0  C/C=C\C1=C(C(=O)O)N2C(=O)C(NC(=O)[C@H](N)c3ccc(O)cc3)[C@H]2SC1 (some centres unmarked)  concentration at 6 h  650 ng/mL

## Input What value of measured concentration at 6 h is listed for C/C=C\C1=C(C(=O)O)N2C(=O)C(NC(=O)[C@H](N)c3cccc(O)c3)[C@H]2SC1 (some centres unmarked) ?
## Output 82 ng/mL

* * *

# testDetails: Mouse blood levels
# runConditions: mouse, blood, im, 20 mg/kg, T 1/2, 20 mg/kg i.m.
endpointName: half-life (min)
Numbers only, in min.

## Input What value of measured half-life is listed for C/C=C\C1=C(C(=O)O)N2C(=O)C(NC(=O)[C@H](N)c3cccc(O)c3)[C@H]2SC1 (stereo partly shown) ?
## Output 36

* * *

Observed MIC for S. aureus Smith, reported per entry below.
Give bare numbers, in µg/mL.

                                   molecule    assayedsystem  endpointname  result
0  C/C=C\C1=C(C(=O)O)N2C(=O)C(NC(=O)[C@H](N)c3ccc(O)cc3)[C@H]2SC1 (stereo partly shown)  S. aureus Smith           MIC     0.4
1  C/C=C\C1=C(C(=O)O)N2C(=O)C(NC(=O)[C@H](N)c3cccc(O)c3)[C@H]2SC1 (stereo partly shown)  S. aureus Smith           MIC     0.4
2  CC1=C(C(=O)O)N2C(=O)[C@@H](NC(=O)[C@H](N)c3ccccc3)[C@H]2SC1  S. aureus Smith           MIC     1.6

Now look at this one.
## Input What value of measured MIC is listed for N[C@@H](C(=O)N[C@@H]1C(=O)N2C(C(=O)O)=C(Cl)CS[C@H]12)c1ccccc1 ?
## Output 0.8
